Biological target: human endothelial lipase (EL) (Homo sapiens, UniProt Q9Y5X9)
Construct: host or cells: cells expressing human endothelial lipase
Sequence (Q9Y5X9 21-500): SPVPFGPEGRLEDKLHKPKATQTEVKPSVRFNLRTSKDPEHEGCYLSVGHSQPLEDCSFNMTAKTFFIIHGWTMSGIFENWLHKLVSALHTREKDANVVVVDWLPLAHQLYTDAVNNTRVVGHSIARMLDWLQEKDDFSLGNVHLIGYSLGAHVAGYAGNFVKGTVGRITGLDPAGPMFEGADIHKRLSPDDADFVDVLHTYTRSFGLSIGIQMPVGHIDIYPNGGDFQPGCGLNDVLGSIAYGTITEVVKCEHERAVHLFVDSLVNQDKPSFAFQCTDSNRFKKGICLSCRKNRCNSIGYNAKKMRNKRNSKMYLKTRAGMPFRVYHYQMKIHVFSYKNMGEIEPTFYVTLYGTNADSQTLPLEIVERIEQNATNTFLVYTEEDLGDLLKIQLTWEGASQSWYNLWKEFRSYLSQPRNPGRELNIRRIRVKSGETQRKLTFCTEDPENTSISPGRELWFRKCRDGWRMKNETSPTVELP
Experiment: Endothelial Lipase Assay, cell surface lipase activity (human)
Type: cell-based
Details: cells expressing human EL, PLA1 substrate 10 μM, fluorescence reaction rate; several values in a cell are repeat determinations
MEASUREMENT NAME: IC50 (nM)

Worked cases, answers included:
| MOLECULE | IC50, nM |
| --- | --- |
| O=C(CCCCCOc1c(F)cccc1F)C(=O)NCc1nnc(-c2ccc(OCc3ccccc3)cc2)o1 | 5480 |
| O=C(CCCCCCc1ccccc1)C(=O)NCc1nnc(-c2ccc(OCc3cccc(C(=O)O)c3)cc2)o1 | 398 |

1 = O=C(CCCCCOc1cccc(F)c1)C(=O)NCc1nnc(-c2ccc3c(c2)Oc2ccccc2O3)o1
2 = O=C(CCCCCCc1ccccc1)C(=O)NCc1nnc(-c2ccc(OCc3cccc(F)n3)cc2)o1
3 = O=C(CCCCCCc1ccccc1)C(=O)NCc1nnc(-c2ccc(OCc3cccc(Cl)n3)cc2)s1
Qu. Order by IC50, ascending. Give the labels in the order specified.
Ans. 2, 3, 1

* * *

target: human endothelial lipase (EL) (Homo sapiens, UniProt Q9Y5X9); construct: host or cells: cells expressing human endothelial lipase; assay: Endothelial Lipase Assay, cell surface lipase activity (human); format: cell-based; details: cells expressing human EL, PLA1 substrate 10 μM, fluorescence reaction rate; several values in a cell are repeat determinations
pIC50: −log10 of the molar value.
MEASUREMENT NAME: pIC50

Worked cases, answers included:
| MOLECULE | pIC50 |
| --- | --- |
| O=C(CCCCCCc1ccc(C(F)(F)F)nc1)C(=O)NCc1nnc(-c2ccc(Oc3ccccc3)cc2)o1 | 6.23 |
| O=C(CCCCCOc1cccc(F)c1)C(=O)NCc1nnc(-c2ccc(OCc3ccccc3)cc2)o1 | 6.57 |

P = O=C(CCCCCCc1ccncc1)C(=O)NCc1nnc(-c2ccccc2)o1
Q = COC(=O)c1cccc(COc2ccc(-c3nnc(CNC(=O)C(=O)CCCCCCc4ccccc4)o3)cc2)c1
Qu. Hi there! Just curious which has the higher pIC50 between P and Q . # reply format: chosen label
Ans. Q
(Q: 6.92, P: 5.33)

* * *

Target: Mouse EL (Mus musculus)
Sequence (Q9WVG5 21-500): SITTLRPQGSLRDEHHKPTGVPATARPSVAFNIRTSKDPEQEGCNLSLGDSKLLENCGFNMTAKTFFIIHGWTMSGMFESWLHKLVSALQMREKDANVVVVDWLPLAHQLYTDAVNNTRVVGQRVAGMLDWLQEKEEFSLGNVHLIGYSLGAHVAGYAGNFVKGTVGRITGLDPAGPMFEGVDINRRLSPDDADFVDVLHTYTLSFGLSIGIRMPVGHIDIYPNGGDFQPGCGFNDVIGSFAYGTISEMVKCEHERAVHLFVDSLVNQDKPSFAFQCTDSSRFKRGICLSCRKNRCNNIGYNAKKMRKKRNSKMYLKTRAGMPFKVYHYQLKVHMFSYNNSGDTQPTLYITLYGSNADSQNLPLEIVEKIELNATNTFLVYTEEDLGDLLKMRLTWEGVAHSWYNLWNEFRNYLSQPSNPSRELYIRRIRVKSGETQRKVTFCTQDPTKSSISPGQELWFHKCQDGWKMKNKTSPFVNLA
Assay: Endothelial Lipase Assay, cell surface lipase activity (mouse)
Conditions: PLA1 substrate 10 μM, fluorescence reaction rate, several values in a cell are repeat determinations
MEASUREMENT NAME: IC50 (nM)

| MOLECULE | MEASUREMENT NAME | UNIT NAME | VALUE OBSERVED |
| --- | --- | --- | --- |
| O=C(CCCCCCc1ccccc1)C(=O)NCc1nnc(-c2cccc(C(F)(F)F)c2)o1 | IC50 | nM | 654 |
| CC(C)(C)OC(=O)c1cccc(COc2ccc(-c3nnc(CNC(=O)C(=O)CCCCCCc4ccccc4)o3)cc2)c1 | IC50 | nM | 993 |

A = O=C(CCCCCOc1cc(F)cc(F)c1)C(=O)NCc1nnc(-c2ccccc2)s1
B = O=C(CCCCCCc1ccccc1)C(=O)NCc1nnc(-c2ccc(OCc3cccc(F)n3)cc2)s1
Qu. Hi there! Just curious which has the higher IC50 between A and B . # reply format: chosen label
Ans. A
(A: 1170 nM, B: 661 nM)

The reported measurements were obtained from patent US8476302B2.
